Quick list: yeast fitness per entry.
B1: tRNA (parent)
chain: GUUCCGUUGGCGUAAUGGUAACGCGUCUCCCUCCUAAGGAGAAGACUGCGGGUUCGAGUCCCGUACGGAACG

- Variants of: B1
- ASSAY: yeast fitness relative to wild type (ratio to wild type); higher = fitter; tRNA-Arg(CCU), competitive growth, 37 C, YPD
Variants at the floor of the assay were thinned out.
MEASUREMENT TYPE: yeast fitness

> print(dat)
                             sequence.string  measurement.type  rel  test.result
 1  GUCCCGUUGGCGUAAUGGUAACGCGUCUCCCUCCUAAGAAGAAGACUGCGGGUUCGAGUCCCGUACGGAACG     yeast fitness    =        0.898
 2  GUUCAGUUGGCGUAAUGGUAACGCGUCUCCCUUCUAAGGAGAAGAAUGCGGGUUCGAGUCCCGUACGGAACG     yeast fitness    ≤          0.5
 3  GUUCCGUUGGCGUAAUGGUAACGCGUCUCCCUCCUAAGGAGAAGACUGCGGGUUCGAAUCCCGUACGAAACG     yeast fitness    =        0.899
 4  GUUCCGUUGGCGUAAUGGUAACGCGUCUCCCUCCUAAGGAGAUGACUGCGGGUUCGAGUGCCGUACGGAACG     yeast fitness    =        0.655
 5  GCUCCGUUGGCGUAAUGGUAACGCGUCUCCCUCCUAAGGAGAAGACUGCGGGUUCGUGUCCUGCACGGAACG     yeast fitness    ≤          0.5
 6  GUUCCGUUGGCGUAAUGGGAACGCGUCUCCCUCCUAAGGAGAAGACUGCGGCUUCGAGUCCAGUACGGAACG     yeast fitness    ≤          0.5
 7  GUUCCGUUGGCGUAAUGGUAACGCGUCUGCCUCUUAAGGAGAAGACUGCGGGUUCGAGCCCCGUACGGAACG     yeast fitness    =        0.631
 8  GUUCCGUUGCCGUAAUGGUAACGCGUCUCCCUCCGAAGGAGACGACCGCGGGUUUGAGUCCCGUAUGGAACG     yeast fitness    ≤          0.5
 9  GUUCCGUUGACGUAAUGGUAACGCGUCUCCCUCCUAAGGGGAAGACUGCGGGUUCGAGUCCCGUACGGAACG     yeast fitness    =         0.79
10  GUUCCAUUGGCGUACUGGUUACGCGUCUCCCUCCUAAGGAGAAGACUGCGGGUUCGAGUCCCGUACGGAACG     yeast fitness    =         0.56
11  GUUCCGUUGGCGUAAUGGUAACGCGUCUCCCUCGUAAGGAGAAGACUGCGGGUUCGAGUCCCGUACGUAACG     yeast fitness    =        0.638
